Where these numbers come from: ChEMBL document CHEMBL1134849

# measurement-description: Oral bioavailability in ratrs
# Format: ADME, organism-based
# test-settings: rat, in vivo
quantity-name: bioavailability

// recorded bioavailability for `C/C(=C(\F)C(=O)Nc1ccc(-c2ccccc2S(N)(=O)=O)cc1Cl)c1ccc2ccnc(N)c2c1` : 35.1%

* * *

# measurement-description: Oral bioavailability in dog
# Assay type: ADME, organism-based, Canis lupus familiaris
# test-settings: in vivo
Hi there, I'd appreciate the recorded bioavailability for every entry that follows.
Record the result as number plus unit.

C/C(=C(\F)C(=O)Nc1ccc(-c2ccccc2S(N)(=O)=O)cc1Br)c1ccc2ccnc(N)c2c1 | 33.1%

Now for another entry.
Item: `C/C(=C(\F)C(=O)Nc1ccc(-c2ccccc2S(N)(=O)=O)cc1)c1ccc2ccnc(N)c2c1` | bioavailability: 36.7%
